B1: H2-Kb / B7 (parent)
chain 1: GQQVQQSPTSLVLQEGENAELQCNFSTSLNSMQWFYQRPGGSLVSVFYNPSGTKQSGRLTSTTVIKERRSSLHISSSQITDSGTYLCAMERDMGYKLTFGTGTSLLVDP
chain 2: EAAVTQSPRNKVAVTGGKVTLSCNQTNNHNNMYWYRQDTGHGLRLIHYSYGAGSTEKGDIPDGYKASRPSQENFSLILELATPSQTSVYFCASGDPGDQDTQYFGPGTRLLVL
chain 3: not shown
chain 4: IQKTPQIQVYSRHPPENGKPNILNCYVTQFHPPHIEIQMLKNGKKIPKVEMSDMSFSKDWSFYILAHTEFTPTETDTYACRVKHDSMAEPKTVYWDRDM
chain 5: SIINFEKL

- Variants of: B1
- assayInfo: % of reporter cells activated (NFAT-GFP), raw; further: test concentration or dose not given here
- conditionDescription: with B7; scale: % of reporter cells activated
experimentalReadout: ratio to parent

| mutantId | reported |
| --- | --- |
| chain 5 K7T | 1.02 |
| chain 5 S1H | 1.45 |
| chain 5 E6N | 1.2 |

[P] chain 5 I3G
[Q] chain 5 E6Y
### Prompt I'm curious whether P or Q has the smaller ratio to parent number. Which is it? Returns: label corresponding to the selected item.
### Response Q
(Q: 0.969, P: 1.86)
